Target: T1, COVID S1 RBD Fc fusion (Antigen 1) (SARS-CoV-2, UniProt P0DTC2 319-541)
T1 construct: domain: RBD
Test: phage ELISA
The following binders are listed with their measured specificity ELISA, fold over background values.

Binder	specificity ELISA, fold over background / fold over background
SARS-CoV-2 variant 1-26 (antibody, V domains shown) VH: EVQLLESGGGLVQPGGSLRLSCAASGFTFSSYAISWVRQAPGKGLEWVSAISGSGYSTYYADSVKGRFTISRDNSKNTLYLQMNSLRAEDTAVYYCARGAPDSSGYYFQGEVYFDYWGQGTLVTVSS VL: QSALTQPASVSGSPGQSITISCTGTSSDVGGYNLVSWYQQHPGKAPKLMIYEGTKRPSGVSNRFSGSKSGNTASLTISGLQAEDEADYYCCSFVRSSAHVVFGGGTKLTVL	1.1
SARS-CoV-2 variant 1-9 (antibody, V domains shown) VH: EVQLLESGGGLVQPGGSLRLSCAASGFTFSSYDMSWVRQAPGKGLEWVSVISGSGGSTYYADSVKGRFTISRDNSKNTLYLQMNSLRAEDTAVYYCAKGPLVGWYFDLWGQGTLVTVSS VL: QSALTQPASVSGSPGQSITISCTGTSSDVGDYNLVSWYQQHPGKAPKLMIYEGSNRPSGVSNRFSGSKSGNTASLTISGLQAEDEADYYCCSYAGSSSFVVFGGGTKLTVL	9.8
SARS-CoV-2 variant 1-23 (antibody, V domains shown) VH: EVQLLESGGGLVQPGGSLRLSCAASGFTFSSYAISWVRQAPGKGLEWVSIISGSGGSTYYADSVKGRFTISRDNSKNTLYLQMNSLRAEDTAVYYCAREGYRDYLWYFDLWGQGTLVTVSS VL: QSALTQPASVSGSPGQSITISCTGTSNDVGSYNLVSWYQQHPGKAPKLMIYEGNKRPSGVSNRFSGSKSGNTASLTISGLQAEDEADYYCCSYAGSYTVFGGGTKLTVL	3.6
